Parameter melting point: see the listing below.

compound	melting point
CC1CCN(c2cc(F)cc(C(=O)Nc3ccc(OCCN4CCOCC4)c4ccccc34)c2)CC1	116 to 118 °C
CCCCOC1c2ccccc2C(=O)N(CC(C)C)C1(/C=C/C(N)=O)CNC(=O)OC(C)(C)C (centres undefined)	149 to 150 °C
COc1cc(Nc2c(C#N)cnc3cc(/C=C/C(=O)O)sc23)c(Cl)cc1Cl	> 250 °C

Could you now consider this next compound?
Give the reported value of melting point for this record: COCOc1ccc(-c2ccc3c(c2)C=C(C(=O)Nc2ccc(CN(C)C4CCOCC4)cc2)CCS3(=O)=O)cc1
227 to 229 °C

---

experimentalReadout: melting point (°C)

compound	uom	recordedResult
CC(C)C(O)(Cn1cncn1)c1ccc(Oc2ccc(Cl)cc2)cc1C(F)(F)F (stereo not given)	°C	114
O=C(O)CCCCCCCCCCCNC(=O)CCCCCCCCCCBr	°C	122

---

Below: a set of entries, each annotated with reported melting point.

compound	recordedResult
N#Cc1ccc(OCCCOc2cccc(-c3cc4ccc(C#N)cc4o3)c2)cc1	128 to 129 °C
Cc1cccc(C)c1NCCCN1C(=O)c2ccccc2C1=O	97 to 98 °C
CCOC(=O)c1c(S(=O)(=O)O)nc(-c2ccccc2)c([N+](=O)[O-])c1C(=O)OCC	187 to 190 °C
CC(C)[C@H](NC(=O)Oc1ccccc1)C(=O)O	84.5 to 85.5 °C
CCCCCc1ccc(CCc2ccc(-c3ccc(OC(F)F)cc3)cc2)cc1	121 °C

Here is another compound to look at.
Retrieve melting point measured for CC(C)(C(=O)O)c1ccc(C(=O)CCCN2CCC(=C3c4ccccc4CCc4ccccc43)CC2)cc1 and print it.
122 to 125 °C

---

experimentalReadout: melting point

molecule	recordedResult
O=C(Nc1ccccc1)ONC1=Nc2ccc(Cl)cc2C(c2ccccc2F)=NC1	126 to 128 °C
CN(Cc1ccc(NC(=O)C2=Cc3cc(Br)ccc3N(C3CC3)CC2)cc1)C1CCOCC1	133 to 136 °C
Cc1cc(CCCCCOc2ccc(-c3ccco3)cc2)on1	86 to 88 °C
O=C(Nc1n[nH]c(=S)s1)N[C@@H](Cc1ccccc1)C(=O)N1CCOCC1	213 to 216 °C
CCCCOc1c(CN)n(CC(C)C)c(=O)c2ccc(/C=C/C(N)=O)cc12	173 to 175 °C
O=C(O)C=Cc1ccc(Oc2c(-c3ccc(O)cc3)ccc3cc(O)ccc23)cc1	150 to 153 °C

Okay, next one:
Complete the entry with melting point for COC(=O)CCc1ncc2c(c1C(=O)OC)CCO2
80 to 81 °C

---

experimentalReadout: melting point

Consider the worked cases shown below.
compound	recordedResult
Clc1ccc2[nH]cc(C3CCNCC3)c2c1	156 to 158 °C
Cc1nc2ccc(CBr)cc2c(=O)n1COC(=O)C(C)(C)C	144 to 145 °C

Give reported melting point value for COc1ccc(-c2cnc3cc4cnn(CC#N)c4cc3n2)cc1F
248 to 252 °C

For the compound OC(c1ccncc1)c1c[nH]c2ccc(F)cc12 (stereo not given) , report melting point.
171 to 173 °C

Identify measured melting point associated with CC(C)Cc1ccc(C(C)C(=O)ON(C(N)=O)C(C)c2ccoc2)cc1 (stereo not given)
55 to 59 °C

---

experimentalReadout: melting point

Observe how each entry below is paired with its result.
molecule	recordedResult
COc1ccc2sn(C(C)(C)C)c(=O)c2c1	92 to 94 °C
CCCn1c(=O)c2[nH]c(/C=C/c3ccc(OC)c(OC)c3OC)nc2n(CCC)c1=O	246 to 247 °C
CSc1cc(-c2nc(=O)c3ccccc3s2)ccn1	173 to 174 °C
CN(O)C(=O)c1ccc(CCCCc2ccncc2)cc1	148 to 150 °C
Fc1ccc(NC(=S)NN(c2ccccc2)c2ccccc2)cc1	200 °C
CCCN(CCc1ccccc1)CCc1cccc2[nH]c(=O)[nH]c12	176 to 177 °C

Quickly give me recorded melting point for CC(C)C[C@H](NC(=S)Nc1ccccc1)C(=O)N[C@H]1CCOC1O (stereo partly specified)
62 to 63.8 °C

Could you please provide reported melting point for NS(=O)(=O)c1ccccc1-c1cnoc1 ? Thanks!
165 to 167 °C

Tell me its melting point given CCc1nn(-c2cc([N+](=O)[O-])ccc2Br)c(=O)n1Cc1ccc(-c2ccccc2S(=O)(=O)NC(C)(C)C)cc1F as the entry.
223 to 225 °C

Look up and state reported melting point for COC(=O)CSc1nc(Nc2ccc(N3CCC(C)CC3)cc2)ncc1[N+](=O)[O-]
180 to 184 °C

For the molecule CCOC(=O)NC(=N)c1ccc(N2CCN(c3ccc(CCC(=O)OC)cc3)S2(=O)=O)cc1 , give its measured melting point value.
> 275 °C

Give the reported value of melting point for this record: c1ccc(-c2nc(CSc3nc4cccc5c4n3CCC5)cs2)cc1
116 to 118 °C

---

Catalogue of molecules with associated melting point

Consider the reported melting point for these molecules:
molecule	melting point
CCc1nc2cc(/C=C/C(=O)NO)ccc2c(=O)n1CCCc1ccccc1	189 to 191 °C
CCCc1nc2ccccc2c(C(=O)O)c1Oc1ccc(-c2ccccc2-c2nnn(C(c3ccccc3)(c3ccccc3)c3ccccc3)n2)cc1	167 to 170 °C
CC(C)NCCNc1nc(Nc2cccc(NS(C)(=O)=O)c2)nc2[nH]ccc12	127 to 131 °C
CCCN(C)CCCCC1CCN(S(=O)(=O)c2ccc(C(F)(F)F)cc2)CC1	73 to 74.8 °C
CCOC(=O)CN(Cc1ccccc1)C(=O)Cn1c2cccc(OCc3ccccc3)c2c2c(COC)c(C(=O)OC(C)C)ncc21	122 °C

Fill in reported melting point for this entry: CCNC(=O)NC1CCCc2sccc21 (centres undefined)
184 to 188 °C

Supply reported melting point belonging to this molecule: COc1ccc(N2N=C3c4cc(Cl)ccc4SCCC3CC2=O)cc1 (centres undefined)
159 to 161 °C

Name the recorded melting point of the item CC(=O)c1ccc2c(c1)ncn2-c1cccc(-c2cnc(N)nc2)c1 in your answer.
275 to 278 °C

Answer with reported melting point of COc1ccccc1-c1ccc2ccc(N)nc2n1
182 °C

For the molecule N#Cc1cnc2c(sc3ccccc32)c1Nc1cccc(Br)c1 , give its reported melting point.
240 to 242 °C

Please report melting point for the following molecule: COC(=O)Nc1nc2ccccc2n1C(=O)NCC1(C)CC(NC(=O)n2c(NC(=O)OC)nc3ccccc32)CC(C)(C)C1 (centres undefined)
82 to 83 °C

In one line, give reported melting point of the entry O=C(O)C(Cc1cccnc1)C(=O)O .
128 to 129 °C

Fill in melting point for record CCCCCCCCn1c(C2=CC(=O)c3ccccc3C2=O)ccc1C1=CC(=O)c2ccccc2C1=O
75 to 76 °C

Retrieve melting point measured for CCCCCCCCCCCCCCCCCCNCC(O)COc1ccc(Nc2ccccc2)cc1 (centres undefined) and print it.
81 to 86 °C

Note down melting point recorded for Nc1ccc2ccccc2c1[N+](=O)[O-]
123 to 125 °C

Answer with reported melting point of O=C(NO)c1ccc2c(c1)CCN(C(=O)NCCc1c[nH]c3ccccc13)C2
173 to 176 °C

Look up melting point of Cc1ccc(Cl)cc1-c1noc(CCC#Cc2ccccn2)n1 and report it.
66 to 68 °C

Consider the molecule CS(=O)c1ccc(-c2coc3ccc(-c4nnc(N)o4)cc23)cc1 (centres undefined) . State its measured melting point.
284 to 285 °C

Give the reported value of melting point for this record: CCOC(=O)c1ccc(OCCCc2ccc(OC)c(OC)c2)cc1
70 to 71 °C

---

experimentalReadout: melting point

Some solved entries appear below for comparison.
compound	melting point
CC(=O)COc1cc2oc(=O)cc(C)c2cc1C	190 °C
COc1ccc2c(c1)CC(CCCNCCCSc1nnc(-c3ccccc3)n1C)CC2 (stereo unspecified)	92 to 95 °C

Tell us which melting point value is on record for Cn1ccc2cc(NC(=O)c3cc4cccnc4n3Cc3cccc(F)c3)ccc21
191 to 192 °C

Let me know recorded melting point for CCCN1C(=O)N2C[C@@H](Cc3ccccc3)N=C2c2c1nc(CCl)n2Cc1ccccc1 , thanks.
112 to 113 °C

Consider the compound O=C(O)C(=O)c1ccc(Br)s1 . State its measured melting point.
119 to 120 °C

State its melting point for this compound: CC(C)(C)C(=O)c1ccc(CC(=O)O)cc1
111 to 112 °C

---

The following molecules are shown together with reported melting point values.

molecule	melting point
CCOC1=NS(=O)(=O)N=C1c1ccccc1	204 to 206 °C

Given CCC(O)c1ccc(Cl)c2nc3n(c12)CCCN3c1c(Cl)cc(OC)cc1Cl (stereo unspecified) , respond with its melting point.
206 to 208 °C

---

Quick list: melting point per entry.

compound	melting point
COc1ccccc1-c1ccc2cnc(Nc3cc4c(cc3F)CCC(=O)N4)nn12	300 to 305 °C
Clc1cccc(Cl)c1C=Nc1c2c(nc3ccccc13)CCCC2	200 to 202 °C
OC1CSC(Oc2cncc(-c3cccnc3)c2)C(O)C1O (centres undefined)	203 °C

Identify the reported melting point for the following entry. CC(=O)OCc1c(-c2cc(Nc3cc4n(n3)CCN(C3COC3)C4)c(=O)n(C)n2)cccc1-n1ncc2cc(C(C)(C)C)cc(F)c2c1=O
180 to 185 °C

Give melting point for the following compound: CC(=O)NC=Cc1ccc(OCC(O)CNC(C)C)cc1 (centres undefined)
144 to 146 °C

Tell me its melting point given CS(=O)(=O)c1ccccc1C(=O)N1CCC(N2CCC(Oc3ccc(Cl)c(Cl)c3)CC2)CC1 as the entry.
141 °C

Let me know recorded melting point for CCOCCN(C(=O)Nc1ccc(C(=O)O)cc1)c1ccc2c(c1)C(C)(C)CCC2(C)C , thanks.
82 to 85 °C

Entry CC(C1CC1)C1NNC(=S)N(N)C1=O (centres undefined) needs its melting point filled in; supply it.
142 to 143 °C

Output melting point of CCCC(=O)Nc1ccccc1Oc1cc(-c2ccc(C(F)(F)F)cc2)ncn1
112 °C
